Entries and their pIC50
# target.of.assay: SIK1 (Homo sapiens, UniProt P57059)
# Construct: purchased Carna Biosciences 02-131
# Sequence (P57059 whole entry): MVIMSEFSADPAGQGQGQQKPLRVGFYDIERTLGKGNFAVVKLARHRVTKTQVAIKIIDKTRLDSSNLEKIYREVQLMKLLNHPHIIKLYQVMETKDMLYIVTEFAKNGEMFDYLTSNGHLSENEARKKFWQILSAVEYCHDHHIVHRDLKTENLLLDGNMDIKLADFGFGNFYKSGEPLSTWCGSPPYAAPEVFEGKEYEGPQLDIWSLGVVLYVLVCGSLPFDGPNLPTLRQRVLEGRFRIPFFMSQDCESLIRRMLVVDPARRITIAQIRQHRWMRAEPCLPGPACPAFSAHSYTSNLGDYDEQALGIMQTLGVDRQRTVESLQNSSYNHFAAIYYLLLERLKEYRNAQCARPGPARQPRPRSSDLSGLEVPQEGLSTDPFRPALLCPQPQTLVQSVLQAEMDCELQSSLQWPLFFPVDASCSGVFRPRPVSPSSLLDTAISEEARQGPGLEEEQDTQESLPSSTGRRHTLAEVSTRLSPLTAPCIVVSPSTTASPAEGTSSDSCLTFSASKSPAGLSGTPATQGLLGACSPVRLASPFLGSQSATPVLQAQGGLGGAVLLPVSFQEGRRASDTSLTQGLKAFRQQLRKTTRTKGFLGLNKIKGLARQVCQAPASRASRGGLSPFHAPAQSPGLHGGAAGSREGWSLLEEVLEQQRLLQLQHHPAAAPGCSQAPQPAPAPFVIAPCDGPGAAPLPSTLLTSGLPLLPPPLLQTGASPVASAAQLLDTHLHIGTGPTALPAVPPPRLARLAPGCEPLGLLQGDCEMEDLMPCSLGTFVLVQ
# procedure.text: ADP-Glo kinase assay, SIK1
# Type: biochemical
pIC50: −log10 of the molar value.
value.kind: pIC50

COc1cc(-c2cnc3cc(C(C)(C)C#N)ccn23)cc(OC(F)F)c1C(=O)N1CC2(CN(C)C2)C1 [Cpd 99]    < 6.30
COc1cc(-c2cnc3cc(C(C)O)ccn23)cc(OC(F)F)c1C(=O)NC1CC1 (centres unmarked) [Cpd 140]    6.30 to 7.00
COc1cc(-c2cnc3cc(C4(C#N)COC4)ccn23)cnc1C(=O)NCC(F)(F)F [Cpd 125]    < 6.30
COc1cc(-c2cnc3cc(C(C)(C)C#N)ccn23)cc(OC(F)F)c1C(=O)NCC1CC1 [Cpd 39]    < 6.30
COc1cc(-c2cnc3cc(C4CN(C(=O)OC(C)(C)C)C4)ccn23)cc(OC)c1C(=O)NCC(F)(F)F [Cpd 58]    6.30 to 7.00
COc1cc(-c2cnc3cc(C(C)(C)C#N)ccn23)cc(OC(F)F)c1C(=O)NC1CC(F)(F)C1 [Cpd 88]    < 6.30
COCCCNC(=O)c1c(OC)cc(-c2cnc3cc(C(C)(C)C#N)ccn23)cc1OC(F)F [Cpd 45]    < 6.30
COc1cc(-c2cnn3cc(C(C)(C)COCC(=O)N(C)C)ccc23)cc(OC(F)F)c1C(=O)N[C@@H]1C[C@@H]1F [Cpd 251]    < 6.30

---

IC50 listing for selected compounds.
# target.of.assay: SIK2 (Homo sapiens, UniProt Q9H0K1)
# Construct: purchased ThermoFisher Scientific PV4792
# Sequence (Q9H0K1 whole entry): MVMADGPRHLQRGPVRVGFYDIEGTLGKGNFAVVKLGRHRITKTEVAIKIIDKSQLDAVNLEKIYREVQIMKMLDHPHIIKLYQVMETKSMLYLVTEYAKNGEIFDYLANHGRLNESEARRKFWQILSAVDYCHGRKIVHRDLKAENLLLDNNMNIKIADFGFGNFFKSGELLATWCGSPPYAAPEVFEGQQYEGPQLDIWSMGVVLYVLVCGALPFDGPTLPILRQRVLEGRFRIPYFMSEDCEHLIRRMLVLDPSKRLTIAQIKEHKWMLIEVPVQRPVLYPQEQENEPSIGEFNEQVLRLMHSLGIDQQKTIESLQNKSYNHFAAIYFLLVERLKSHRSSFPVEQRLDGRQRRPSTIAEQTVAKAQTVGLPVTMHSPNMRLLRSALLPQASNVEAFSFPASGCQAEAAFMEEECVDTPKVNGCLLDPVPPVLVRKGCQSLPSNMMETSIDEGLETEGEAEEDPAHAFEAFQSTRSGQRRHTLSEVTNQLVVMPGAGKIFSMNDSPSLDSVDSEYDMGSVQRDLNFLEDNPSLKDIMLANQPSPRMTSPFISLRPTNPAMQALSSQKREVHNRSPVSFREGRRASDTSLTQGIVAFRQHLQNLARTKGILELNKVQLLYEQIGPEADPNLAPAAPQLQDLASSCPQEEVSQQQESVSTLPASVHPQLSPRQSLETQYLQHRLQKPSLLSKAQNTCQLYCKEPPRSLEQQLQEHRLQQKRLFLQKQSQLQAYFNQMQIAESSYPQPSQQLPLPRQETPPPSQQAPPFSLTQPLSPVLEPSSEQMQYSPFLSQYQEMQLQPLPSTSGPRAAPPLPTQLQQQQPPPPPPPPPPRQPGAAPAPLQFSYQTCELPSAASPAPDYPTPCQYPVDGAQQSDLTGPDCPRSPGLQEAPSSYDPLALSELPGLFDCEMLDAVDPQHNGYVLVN
# procedure.text: 33P radioactive kinase assay, SIK2; also: AMARA 5 µM, 10 µM ATP
# Type: biochemical
value.kind: IC50

COc1cc(-c2cnc3cc(C4CCCN(C(=O)OC(C)(C)C)C4)ccn23)cc(OC)c1C(=O)NCC(F)(F)F (centres unmarked)    100 to 500 nM
COc1cc(-c2cnc3cc(C4CCN(C(=O)OC(C)(C)C)CC4)ccn23)cc(OC)c1C(=O)NCC(F)(F)F    100 to 500 nM
COc1cc(-c2cnc3cc(C(C)(C)C#N)ccn23)cc(OC)c1C(=O)NCC(F)(F)F    > 500 nM
COc1cc(-c2cnc3cc(C(C)(C)C(N)=O)ccn23)cc(OC)c1C(=O)NC1CC1    > 500 nM
COc1cc(-c2cnc3cc(C4CCN(C)CC4)ccn23)cc(OC)c1C(=O)NCC(F)(F)F    100 to 500 nM
COc1cc(-c2cnc3cc(C(C)(C)C#N)ccn23)cc(OC(F)F)c1C(=O)NC1CC1    > 500 nM
COc1cc(-c2cnc3cc(C4(C#N)CC4)ccn23)cc(OC(F)F)c1C(=O)NC1CC1    10 to 100 nM
COc1cc(-n2cnc3cc(C4CCN(C)CC4)ccc32)cc(OC)c1C(=O)NCC(F)(F)F    > 500 nM

---

Measured maximal fold induction, listed per entry for reference.
# Test system: LPS triggered IL-10 secretion in monocytes
# procedure.text: Monocytes assay: LPS-triggered IL-10 (ELISA)
# Format: cell-based, human
# assay.setup: Homo sapiens, Monocyte, LPS-triggered IL-10 induction, median maximal fold change vs LPS only, read-out: IL-10 FCmax median
value.kind: maximal fold induction

COc1cc(-c2cnn3cc(C4COCCO4)ccc23)cc(OC(F)F)c1C(=O)N[C@@H]1C[C@@H]1F (some centres unmarked) [Cpd 240]    1.5 to 4.5
[2H]C([2H])([2H])C(C#N)(c1ccc2c(-c3cc(OC)c(C(=O)N[C@@H]4C[C@@H]4F)c(OC(F)F)c3)cnn2c1)C([2H])([2H])[2H] [Cpd 275]    1.5 to 4.5
COc1cc(-c2cnn3cc(C(C)(C)C#N)ccc23)cc(OC(F)F)c1C(=O)N[C@H]1C[C@H]1F [Cpd 234]    < 1.5
COc1cc(-c2cnn3cc(C4COCCO4)ccc23)cc(OC(F)F)c1C(=O)NC1CC1 (centres unmarked) [Cpd 232]    < 1.5
COc1cc(-c2cnn3cc(C4COC4)ccc23)cc(OC(F)F)c1C(=O)NC1CC1 [Cpd 216]    < 1.5
